The reported numbers originate from patent US7247714B2.

So I've got a bunch of compounds here, and I need their CPRE Activity: concentration to achieve a two-fold induction of CPRE activity over control values.
test system: p3xCPRE/Luc; assay: Activation of p3xCPRE/Luc by small molecular weight organic compounds (Table 6); format: cell-based, human; conditions: luciferase activity 16 hours after exposure
Give bare numbers, in µM.

The examples below pair each entry with its known result.
[
  {
    "chemical smiles": "COc1cc(OC)c(-c2cc3ccccc3s2)cc1/C=C/C(=O)c1cc(OC)c(O)c(OC)c1",
    "unit spec": "µM",
    "assay result": 0.7
  },
  {
    "chemical smiles": "COc1cc(OC)c(-c2cc3ccccc3s2)cc1/C=C/C(=O)c1cc(OC)c(OCC(=O)[O-])c(OC)c1.[Na+]",
    "unit spec": "µM",
    "assay result": 1.4
  },
  {
    "chemical smiles": "COc1ccc(COc2ccc(C(=O)/C=C/c3cc(OC)c(OC)c(OC)c3)cc2OC)cc1",
    "unit spec": "µM",
    "assay result": 2
  }
]

Challenge: Entry `O=C(/C=C/c1ccccc1)c1ccccc1` needs its CPRE Activity: concentration to achieve a two-fold induction of CPRE activity over control filled in; supply it.
Response given: 25

---

tested on: p3xCPRE/Luc; test: Activation of p3xCPRE/Luc by small molecular weight organic compounds (Table 6); assay type: cell-based, human; conditions: luciferase activity 16 hours after exposure
measure: CPRE Activity: concentration to achieve a two-fold induction of CPRE activity over control

[
  {
    "molecule": "COc1ccc(C(=O)/C=C/c2ccc(-c3cccs3)cc2)cc1OC [Compound I]",
    "assay result": "8 µM"
  },
  {
    "molecule": "COc1ccc(/C=C/C(=O)c2cc(C(C)(C)C)c(OC)c(C(C)(C)C)c2)cc1 [Compound C]",
    "assay result": "5 µM"
  },
  {
    "molecule": "COc1cc(OCC(=O)[O-])c(/C=C/C(=O)c2cc(OC)c(OC)c(OC)c2)cc1-c1cc2ccccc2s1.[Na+] [R]",
    "assay result": "14 µM"
  },
  {
    "molecule": "COc1cc(/C=C/C(=O)c2ccc(OC)c(OC)c2OC)cc(-c2cc3ccccc3s2)c1OC [Q]",
    "assay result": "2.5 µM"
  },
  {
    "molecule": "COc1cc(OC)c(-c2cc3ccccc3s2)cc1/C=C/C(=O)c1cc(OC)c([O-])c(OC)c1.[Na+] [P]",
    "assay result": "1 µM"
  }
]

Give one value of CPRE Activity: concentration to achieve a two-fold induction of CPRE activity over control per listed molecule.
1. COc1ccc(-c2cccs2)cc1/C=C/C(=O)c1ccc(OCc2ccccn2)c(OC)c1 [L]
2. COc1cc(/C=C/C(=O)c2ccc(OC)c(OC)c2OC)cc(-c2cccs2)c1OC [Compound G]
3. COc1cc(OC)c(-c2cc3ccccc3s2)cc1/C=C/C(=O)c1ccc(OC)c(OC)c1 [M]

Response given:
0.7 µM
3 µM
2.5 µM

Challenge: State, in one line, measured CPRE Activity: concentration to achieve a two-fold induction of CPRE activity over control of COc1c(C(C)(C)C)cc(C(=O)/C=C/c2ccccc2)cc1C(C)(C)C [D]
Response given: 2.5 µM
